# System: HepG2
# Method Summary: cytotoxicity call (relative viability < 0.9)
# Measurement Conditions: 10 µM
The whole screen tested about 39,000 compounds, of which about 3,300 (8.5%) were called active. Only a selection was taken, and actives are over-represented in it overall.
Measure Name: cytotoxicity call

{"columns": ["Item Smiles", "Measured"],
 "data": [
  ["C[C@H](CO)N1C[C@H](C)[C@@H](CN(C)C(=O)Nc2cccc3ccccc23)OCCCC[C@H](C)Oc2ccc(NC(=O)C3CCCCC3)cc2C1=O", "inactive"],
  ["C[C@H]1CCCCO[C@@H](CN(C)C(=O)Nc2cccc3ccccc23)[C@@H](C)CN([C@@H](C)CO)C(=O)c2cc(NC(=O)C3CCCCC3)ccc2O1", "inactive"],
  ["C[C@@H]1CCCCO[C@H](CN(C)C(=O)Nc2cccc3ccccc23)[C@@H](C)CN([C@H](C)CO)C(=O)c2cc(NC(=O)C3CCCCC3)ccc2O1", "inactive"]
]}
